Target: integrin α4β7 on α4β7+ memory T helper cells (Homo sapiens, UniProt P13612+P26010)
Construct: endogenous in cells
Sequence (P13612 34-1032): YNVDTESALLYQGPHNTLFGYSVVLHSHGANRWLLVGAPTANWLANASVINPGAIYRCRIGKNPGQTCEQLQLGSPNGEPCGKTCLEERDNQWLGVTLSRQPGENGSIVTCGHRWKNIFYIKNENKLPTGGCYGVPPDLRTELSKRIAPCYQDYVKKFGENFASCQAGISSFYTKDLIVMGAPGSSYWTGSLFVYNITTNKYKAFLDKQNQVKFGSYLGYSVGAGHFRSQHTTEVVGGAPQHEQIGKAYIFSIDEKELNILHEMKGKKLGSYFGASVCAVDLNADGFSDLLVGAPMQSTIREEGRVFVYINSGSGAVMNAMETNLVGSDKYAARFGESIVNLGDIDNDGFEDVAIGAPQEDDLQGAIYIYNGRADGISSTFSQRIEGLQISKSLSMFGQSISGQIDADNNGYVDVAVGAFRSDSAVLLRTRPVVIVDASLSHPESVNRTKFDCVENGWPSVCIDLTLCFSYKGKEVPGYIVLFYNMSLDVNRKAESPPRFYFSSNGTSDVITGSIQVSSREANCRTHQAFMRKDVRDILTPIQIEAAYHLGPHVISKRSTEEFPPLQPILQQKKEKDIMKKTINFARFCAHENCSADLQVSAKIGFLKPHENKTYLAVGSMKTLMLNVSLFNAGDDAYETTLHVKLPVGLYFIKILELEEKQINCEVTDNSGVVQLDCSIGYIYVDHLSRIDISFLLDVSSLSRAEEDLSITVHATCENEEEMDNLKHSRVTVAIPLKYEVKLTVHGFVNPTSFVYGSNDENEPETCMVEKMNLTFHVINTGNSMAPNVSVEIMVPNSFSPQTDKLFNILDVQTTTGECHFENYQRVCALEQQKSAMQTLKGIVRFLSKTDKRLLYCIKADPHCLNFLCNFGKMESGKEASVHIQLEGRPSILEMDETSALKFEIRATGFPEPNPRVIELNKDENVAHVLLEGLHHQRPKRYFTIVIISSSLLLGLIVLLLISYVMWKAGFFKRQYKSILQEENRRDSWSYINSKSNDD
Sequence (P26010 20-798): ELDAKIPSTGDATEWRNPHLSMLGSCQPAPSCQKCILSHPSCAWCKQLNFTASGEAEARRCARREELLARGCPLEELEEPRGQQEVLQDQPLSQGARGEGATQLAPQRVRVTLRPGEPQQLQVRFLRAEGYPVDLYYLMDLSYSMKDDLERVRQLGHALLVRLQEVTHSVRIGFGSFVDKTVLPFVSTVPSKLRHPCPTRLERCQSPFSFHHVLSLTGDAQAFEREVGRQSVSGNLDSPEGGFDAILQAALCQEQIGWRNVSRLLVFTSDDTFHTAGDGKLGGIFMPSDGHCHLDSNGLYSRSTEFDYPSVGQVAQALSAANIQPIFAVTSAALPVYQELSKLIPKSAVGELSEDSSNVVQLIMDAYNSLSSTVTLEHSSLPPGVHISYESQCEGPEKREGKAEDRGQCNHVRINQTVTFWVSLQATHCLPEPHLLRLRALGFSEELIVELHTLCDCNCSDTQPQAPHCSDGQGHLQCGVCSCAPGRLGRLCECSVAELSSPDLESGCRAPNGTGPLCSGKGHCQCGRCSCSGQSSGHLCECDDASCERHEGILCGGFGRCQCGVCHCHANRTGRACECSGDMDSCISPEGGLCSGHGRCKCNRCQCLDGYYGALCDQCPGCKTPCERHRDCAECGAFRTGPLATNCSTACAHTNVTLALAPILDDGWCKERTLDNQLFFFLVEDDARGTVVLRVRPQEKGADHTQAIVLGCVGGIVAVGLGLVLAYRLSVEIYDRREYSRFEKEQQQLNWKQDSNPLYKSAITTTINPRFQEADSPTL
Experiment: MAdCAM-1 competition / receptor occupancy assay in human whole blood, α4β7-positive Th memory cells
Assay type: cell-based
Conditions: human whole blood, inhibition of MAdCAM-1 binding to α4β7-positive Th memory cells, FACS; read-out: MADCAM FACS α4β7 Th mem
pIC50: −log10 of the molar value.
Lab note: compare pIC50 against 7. Equal or greater, write yes (1). Smaller, write no (0).

Task item: Entry COc1cc(C(=O)N2CCN(c3ccc(-c4ccc5cc4CNC(=O)[C@@H]4CCCN4[C@H](C(=O)NC(C)(C)C)[C@H](C)NC(=O)[C@H]([C@@H](C)O)NC(=O)[C@H](CC(=O)O)NC(=O)[C@H](CC(C)C)NC5=O)cc3)CC2)cc(-c2ccc(C(=O)N3CCN(c4ccc(-c5ccc6cc5CNC(=O)[C@@H]5CCCN5[C@H](C(=O)NC(C)(C)C)[C@H](C)NC(=O)[C@H]([C@@H](C)O)NC(=O)[C@H](CC(=O)O)NC(=O)[C@H](CC(C)C)NC6=O)cc4)CC3)cc2F)c1 [Compound 464] : is its pIC50 no less than 7?
Reply: no (0)

Task item: # bool: pIC50 of CC(C)C[C@@H]1NC(=O)c2ccc(-c3ccc(N4CCN(C(=O)CCC(=O)N5CCN(c6ccc(-c7ccc8cc7CNC(=O)[C@@H]7CCCN7[C@H](C(=O)NC(C)(C)C)[C@H](C)NC(=O)[C@H]([C@@H](C)O)NC(=O)[C@H](CC(=O)O)NC(=O)[C@H](CC(C)C)NC8=O)cc6)CC5)CC4)cc3)c(c2)CNC(=O)[C@@H]2CCCN2[C@H](C(=O)NC(C)(C)C)[C@H](C)NC(=O)[C@H]([C@@H](C)O)NC(=O)[C@H](CC(=O)O)NC1=O [Compound 484] >= 7
Reply: yes (1)
